molecular target: DRB1*1302 (DR6w19) (Homo sapiens, UniProt P01903+P01911, A100E/A169T/K41T/L162R/M171V/P40S/Q125H/Q178H/Q39Y/Q99D/R42S/S66N/T262R/V115G/W38E/Y61H); construct: Epstein-Barr virus (EBV) transformed homozygous cell lines were used as sources; the source of Class II molecules the EBV transformed homozygous cell line H0301; endogenous in cells; host or cells: H0301 (EBV-transformed homozygous B cell line); assay: biochemical; format: binding; conditions: Binding Capacity (IC50% nM) DR6w19
No end group written: not given here.
quantity-name: IC50

The cases that follow already have their IC50 on record.
• LFHYYFLSEKAPGSTV [Peptide 1136.04] = > 10000 nM
• QEIDPLSYNYIPVNSN [Peptide 1136.55] = 5000 nM

For the 5 sequences below, give their IC50 values.
1. LWWSTMYLTHHYFVDL [Peptide 1136.46]
2. GPPTALRSFGFAFGYM [Peptide 1136.29]
3. LAAIIFLFGPPTALRS [Peptide 1136.28]
4. RVYQEPQVSPPQRAET [Peptide 1136.59.01a]
5. WLFPRFKFVWVTYASW [Peptide 1136.44.01]

["> 10000 nM", "> 10000 nM", "3180 nM", "> 10000 nM", "> 10000 nM"]

---

molecular target: DRB1*0802 (DR8w2) (Homo sapiens, UniProt P01903+P01911, A100R/A103L/A169T/F76Y/H45Y/I96F/K41T/L162R/M171V/P40S/Q125H/Q178H/Q39Y/Q99D/R218S/R42G/S66Y/V115G/W38E); construct: Epstein-Barr virus (EBV) transformed homozygous cell lines were used as sources; endogenous in cells; host or cells: OLL (EBV-transformed homozygous B cell line); assay: biochemical; type: binding; details: Binding Capacity (IC 50% nM) Other Alleles DR8w2
No end group written: not given here.
quantity-name: IC50

Tell me the measured IC50 of LFHYYFLSEKAPGSTV [Peptide 1136.04] , please.
< 1000 nM

---

target: DRB1*1501 (DR2w2b) (Homo sapiens, UniProt P01903+P01911); construct: expressed in transfected cells; host or cells: transfected fibroblasts L466.1; experiment: biochemical; type: binding; conditions: Binding Capacity (IC50% nM) DR2w2b
quantity-name: IC50

- CC(C)[C@H](NC(=O)[C@H](Cc1ccccc1)NC(=O)[C@@H](N)CCCCN)C(=O)N[C@H](C(=O)N1CCC[C@H]1C(=O)NCC(=O)N[C@@H](C)C(=O)N[C@@H](C)C(=O)N[C@H](C(=O)N1CCC[C@H]1C(=O)N[C@@H](Cc1ccc(O)cc1)C(=O)N[C@@H](C)C(=O)NCC(=O)N[C@@H](CCC(=O)O)C(=O)N1CCC[C@H]1C(=O)O)[C@@H](C)O)C(C)C [Peptide F107.17]: > 10000 nM
- CC(C)[C@H](NC(=O)[C@H](CO)NC(=O)[C@@H](NC(=O)[C@H](C)NC(=O)[C@H](CO)NC(=O)[C@H](CO)NC(=O)[C@H](C)NC(=O)[C@H](C)NC(=O)[C@H](Cc1ccc(O)cc1)NC(=O)[C@@H](NC(=O)[C@H](CO)NC(=O)CNC(=O)[C@H](CCC(N)=O)NC(=O)[C@@H]1CCCN1C(=O)[C@@H](N)CCC(=O)O)[C@@H](C)O)[C@@H](C)O)C(=O)N[C@@H](CC(=O)O)C(=O)O [Peptide 1136.71]: > 10000 nM
- CC(C)C[C@H](NC(=O)CN)C(=O)N[C@@H](C)C(=O)N[C@@H](Cc1ccc(O)cc1)C(=O)N[C@@H](CCCCN)C(=O)N[C@@H](Cc1ccccc1)C(=O)N[C@H](C(=O)N[C@H](C(=O)N1CCC[C@H]1C(=O)NCC(=O)N[C@@H](C)C(=O)N[C@@H](C)C(=O)N[C@H](C(=O)N1CCC[C@H]1C(=O)N[C@@H](Cc1ccc(O)cc1)C(=O)O)[C@@H](C)O)C(C)C)C(C)C [Peptide 1188.32]: > 10000 nM

Now, please, on to the next molecule.
Find IC50 (DRB1*1501 (DR2w2b) (Homo sapiens, UniProt P01903+P01911)) for the entry CC(C)[C@H](NC(=O)[C@H](Cc1ccccc1)NC(=O)[C@H](CCCCN)NC(=O)[C@H](Cc1ccc(O)cc1)NC(=O)[C@H](C)N)C(=O)N[C@H](C(=O)N1CCC[C@H]1C(=O)NCC(=O)N[C@@H](C)C(=O)N[C@@H](C)C(=O)N[C@H](C(=O)N1CCC[C@H]1C(=O)N[C@@H](Cc1ccc(O)cc1)C(=O)N[C@@H](C)C(=O)NCC(=O)O)[C@@H](C)O)C(C)C [Peptide 27.412]
> 10000 nM

---

biological target: DRB1*0701 (DR7) (Homo sapiens, UniProt P01903+P01911, A100R/A102G/A103Q/D57E/D86V/E43K/F76Y/K127E/L162R/M171V/P40G/Q125H/Q99D/R33Q/R42Y/R54Q/S133A/S66F/T210M/V115G/Y107V/Y59L/Y89S); construct: Epstein-Barr virus (EBV) transformed homozygous cell lines were used as sources; endogenous in cells; host or cells: PITOUT (EBV-transformed homozygous B cell line); experiment: biochemical; format: binding; conditions: Binding Capacity (IC50% nM) DR7
No end group written: not given here.
Please provide measured IC50 for the entries that follow.
Numbers only, in nM.

The cases that follow already have their IC50 on record.
- LWWSTMYLTHHYFVDL [Peptide 1136.46]: 5810
- QEIDPLSYNYIPVNSN [Peptide 1136.55]: 2450
- LFHYYFLSEKAPGSTV [Peptide 1136.04]: 3330

Now, please, on to the next sequence.
Tell me the measured IC50 of LAAIIFLFGPPTALRS [Peptide 1136.28] , please.
3620

---

target: DRB1*1101 (DR5w11) (Homo sapiens, UniProt P01903+P01911, A100R/A169T/A87E/I96F/K41T/L162R/M171V/P40S/Q125H/Q178H/Q39Y/Q99D/R42S/S66Y/T262R/V115G/W38E); construct: Epstein-Barr virus (EBV) transformed homozygous cell lines were used as sources; endogenous in cells; host or cells: SWEIG (EBV-transformed homozygous B cell line); assay: biochemical; assay type: binding; conditions: Binding Capacity (IC50% nM) DR5w11
Sequence (P01903 26-254, other chains not shown): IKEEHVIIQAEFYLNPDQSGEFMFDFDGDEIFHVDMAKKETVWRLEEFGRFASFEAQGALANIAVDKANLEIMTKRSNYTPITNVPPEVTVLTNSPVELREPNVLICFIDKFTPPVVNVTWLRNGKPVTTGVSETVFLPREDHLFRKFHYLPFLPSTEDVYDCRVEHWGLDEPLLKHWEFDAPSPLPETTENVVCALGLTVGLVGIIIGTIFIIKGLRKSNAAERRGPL
No end group written: not given here.
Please provide measured IC50 for the entries that follow.

For the 6 sequences below, give their IC50 values.
1. RVYQEPQVSPPQRAET [Peptide 1136.59.01a]
2. QEIDPLSYNYIPVNSN [Peptide 1136.55]
3. GPPTALRSFGFAFGYM [Peptide 1136.29]
4. LWWSTMYLTHHYFVDL [Peptide 1136.46]
5. LFHYYFLSEKAPGSTV [Peptide 1136.04]
6. WLFPRFKFVWVTYASW [Peptide 1136.44.01]

1. > 10000 nM
2. 4540 nM
3. 6250 nM
4. > 10000 nM
5. 69 nM
6. 4000 nM

---

molecular target: DRB5*0101 (DR2w2a) (Homo sapiens, UniProt P01903+Q30154); construct: Epstein-Barr virus (EBV) transformed homozygous cell lines were used as sources; endogenous in cells; host or cells: GM3107 (EBV-transformed homozygous B cell line); test: biochemical; format: binding; conditions: read-out: Binding Capacity (IC 50% nM) Other Alleles DR2w2a
Please provide measured IC50 for the entries that follow.

• CC(C)C[C@H](NC(=O)CNC(=O)[C@H](C)NC(=O)[C@@H](N)CC(C)C)C(=O)N[C@@H](CC(C)C)C(=O)NCC(=O)N[C@@H](CC(N)=O)C(=O)N[C@H](C(=O)N[C@@H](CO)C(=O)N[C@H](C(=O)N[C@H](C(=O)N[C@@H](CC(C)C)C(=O)N[C@@H](CC(C)C)C(=O)NCC(=O)NCC(=O)O)C(C)C)[C@@H](C)O)C(C)C [Peptide F107.10] = > 1000 nM

For the 3 molecules below, give their IC50 values.
1. CC(C)[C@H](NC(=O)[C@H](CO)NC(=O)[C@@H](NC(=O)[C@H](C)NC(=O)[C@H](CO)NC(=O)[C@H](CO)NC(=O)[C@H](C)NC(=O)[C@H](C)NC(=O)[C@H](Cc1ccc(O)cc1)NC(=O)[C@@H](NC(=O)[C@H](CO)NC(=O)CNC(=O)[C@H](CCC(N)=O)NC(=O)[C@@H]1CCCN1C(=O)[C@@H](N)CCC(=O)O)[C@@H](C)O)[C@@H](C)O)C(=O)N[C@@H](CC(=O)O)C(=O)O [Peptide 1136.71]
2. CC(C)[C@H](NC(=O)[C@H](Cc1ccccc1)NC(=O)[C@@H](N)CCCCN)C(=O)N[C@H](C(=O)N1CCC[C@H]1C(=O)NCC(=O)N[C@@H](C)C(=O)N[C@@H](C)C(=O)N[C@H](C(=O)N1CCC[C@H]1C(=O)N[C@@H](Cc1ccc(O)cc1)C(=O)N[C@@H](C)C(=O)NCC(=O)N[C@@H](CCC(=O)O)C(=O)N1CCC[C@H]1C(=O)O)[C@@H](C)O)C(C)C [Peptide F107.17]
3. CC[C@H](C)[C@H](N)C(=O)N[C@@H](CCCCN)C(=O)N[C@@H](CC(C)C)C(=O)N1CCC[C@H]1C(=O)N[C@H](C(=O)N[C@H](C(=O)N[C@@H](CC(C)C)C(=O)N[C@@H](C)C(=O)N[C@@H](Cc1ccccc1)C(=O)N[C@@H](C)C(=O)N[C@H](C(=O)N[C@@H](CS)C(=O)N[C@@H](Cc1ccccc1)C(=O)N[C@@H](CC(C)C)C(=O)N[C@H](C(=O)N1CCC[C@H]1C(=O)O)[C@@H](C)CC)[C@@H](C)O)[C@@H](C)CC)[C@@H](C)CC [Peptide 1136.12]

["> 1000 nM", "> 1000 nM", "> 1000 nM"]

For the 2 molecules below, give their IC50 values.
1. CC[C@H](C)[C@H](NC(=O)[C@H](CO)NC(=O)[C@H](CO)NC(=O)[C@H](CC(N)=O)NC(=O)[C@@H](NC(=O)[C@@H](NC(=O)[C@H](CC(N)=O)NC(=O)[C@H](Cc1ccccc1)NC(=O)[C@@H](N)C(C)C)C(C)C)C(C)C)C(=O)NCC(=O)N[C@@H](CC(C)C)C(=O)N[C@H](C(=O)N[C@@H](CCSC)C(=O)N[C@H](C(=O)N[C@@H](CC(C)C)C(=O)O)C(C)C)[C@@H](C)CC [Peptide F107.23]
2. CC[C@H](C)[C@H](NC(=O)[C@H](CC(=O)O)NC(=O)[C@H](CC(C)C)NC(=O)[C@@H](NC(=O)CNC(=O)[C@@H](NC(=O)[C@@H](NC(=O)[C@@H](NC(=O)[C@@H](NC(=O)[C@H](C)NC(=O)[C@H](CC(C)C)NC(=O)[C@@H](NC(=O)[C@H](CC(N)=O)NC(=O)[C@H](CO)NC(=O)[C@H](CC(C)C)NC(=O)[C@@H](N)CC(N)=O)C(C)C)[C@@H](C)O)[C@@H](C)CC)[C@@H](C)O)[C@@H](C)O)C(C)C)C(=O)O [Peptide 1136.24]

["> 1000 nM", "> 1000 nM"]
